Test system: SN12C renal
measurement-protocol: NCI tumour cell line growth inhibition, 48 h
Entries annotated with measured TGI

Record excerpt, results attached:
compound	TGI
COC(=O)NC/C=C\c1nc(CC/C=C\C(=O)OC2CC3CC(=O)O[C@H](/C=C/CC(C)C)C[C@H]4CCC(C)C(C[C@H](OC)CC(C2)O3)O4)co1 (some centres undefined)	28.8 µM
C[C@]12CC[C@H](O)CC1=CC[C@@H]1C2CC[C@]2(C)c3nn(-c4ccc(F)cc4)nc3CC12 (some centres undefined)	> 100 µM
O=c1[nH]nc(-c2ccc([N+](=O)[O-])cc2)n1/N=C/c1ccc([N+](=O)[O-])cc1	> 100 µM

Lookup: Could you tell me which TGI is on file for `COc1ccc2c(c1)c(=O)c1c(NCCCN(C)CCCNc3ccc4c(=O)n(CCN(C)C)c(=O)n5c6ccc(OC)cc6c(=O)c3c45)ccc3c(=O)n(CCN(C)C)c(=O)n2c31` ?
Found: 1.43 µM

Lookup: Also, `CC(C)=NNc1cnnc2ccc([N+](=O)[O-])cc12` please.
Found: > 100 µM

Lookup: Also, `COc1ccc2c([nH]c3cc(O)c(C)cc32)c1C=O` please.
Found: > 25 µM

Lookup: Also, `Cc1ccc(C(=O)Cc2nc3ncccc3[nH]c2=O)cc1` please.
Found: > 100 µM

Lookup: Also, `Nc1nc2cc(CNc3ccc(C(=O)O)cc3)ccc2nc1-c1ccccc1` please.
Found: > 100 µM

Lookup: Also, `Cc1cc(C)c(O)c(CNCCCCCCNCc2cc(C)cc(C)c2O)c1` please.
Found: 3.92 µM

---

Entries annotated with measured TGI
System: SF-295 CNS
measurement-protocol: NCI tumour cell line growth inhibition, 48 h
Report the value in µM with no unit label.

Record excerpt, results attached:
>>> df
                                   compound      target  quantity  readout_units  experimental_value
0  CCCN=C1Nc2ccccc2[C@@H]2N(C)c3ccccc3C(C)C[C@]12C (stereo partly drawn)  SF-295 CNS       TGI             µM                30.9
1  C=C(C)[C@@H]1CC[C@]2(CO)CC[C@]3(C)[C@H](CC[C@@H]4[C@@]5(C)CC[C@H](O)C(C)(C)[C@@H]5CC[C@]43C)[C@@H]12  SF-295 CNS       TGI             µM                27.8

Lookup: Could you tell me which TGI is on file for `COc1ccc(/C=C2\Sc3nnc(C)n3N=C2c2cc(F)c(Cl)cc2Cl)cc1OC` ?
Found: 53.6

Lookup: Also, `COc1ccc2c(c1)c(=O)c1c(NCCCN(C)CCCNc3ccc4c(=O)n(CCN(C)C)c(=O)n5c6ccc(OC)cc6c(=O)c3c45)ccc3c(=O)n(CCN(C)C)c(=O)n2c31` please.
Found: 3.48

---

Entries annotated with measured TGI
Test system: SF-295 CNS
measurement-protocol: NCI tumour cell line growth inhibition, 48 h

>>> print(df.to_string())
                                   compound      target  experimental_value
0  Cc1ccc(C2(N3CCCC3)OC(C)(C)c3cccc4cccc2c34)cc1 (stereo not drawn)  SF-295 CNS               28 µM
1  COC(=O)c1c(C)ccc2c(O)c3c(cc12)C(=O)c1c2c(cc(O)c1C3=O)C1(C)OC(C)(O2)C(O)C(N(C)C)C1O (stereo not drawn)  SF-295 CNS             25.1 µM
2  O=c1[nH]nc(-c2ccc([N+](=O)[O-])cc2)n1/N=C/c1ccc([N+](=O)[O-])cc1  SF-295 CNS            > 100 µM

Lookup: Could you tell me which TGI is on file for O=C1OC(C2Cc3ccccc3C2=O)c2ccccc21 (stereo not drawn) ?
Found: > 100 µM

Lookup: Also, `CCSCC(=O)N1CCc2c([nH]c3ccccc23)C1=O` please.
Found: > 100 µM

Lookup: Also, O=C1CCCCCCCC/C=C/CCC(c2ccco2)O1 (stereo not drawn) please.
Found: > 100 µM

Lookup: Also, `O=c1[nH]c(=S)c2cc3c(=S)[nH]c(=O)n(CCC(c4ccccc4)(c4ccccc4)c4ccccc4)c3nc2n1CCC(c1ccccc1)(c1ccccc1)c1ccccc1` please.
Found: > 100 µM

Lookup: Also, CC([C@H]1CCC2C3CCC4C[C@@H](NC=O)CC[C@]4(C)C3CC[C@@]21C)N(C)C (stereo partly drawn) please.
Found: 5.58 µM

Cited source for all entries: PubChem BioAssay (NCI)
